Recorded measurements of pIC50, one per entry
measured_target: NRAS WT (Homo sapiens (Human), UniProt P01111+P62937)
Sequence (P01111 whole entry): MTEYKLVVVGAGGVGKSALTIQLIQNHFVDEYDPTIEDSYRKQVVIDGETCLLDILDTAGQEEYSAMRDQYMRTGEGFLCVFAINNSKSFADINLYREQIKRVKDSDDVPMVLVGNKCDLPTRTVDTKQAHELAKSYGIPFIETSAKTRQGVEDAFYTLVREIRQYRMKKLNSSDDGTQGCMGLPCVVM
Sequence (P62937 whole entry): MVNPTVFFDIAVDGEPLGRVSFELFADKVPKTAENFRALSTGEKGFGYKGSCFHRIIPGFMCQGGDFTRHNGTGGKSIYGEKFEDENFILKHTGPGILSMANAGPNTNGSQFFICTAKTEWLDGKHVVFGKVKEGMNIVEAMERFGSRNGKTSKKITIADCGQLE
protocol_description: Ras-Raf (BRAF RBD) disruption / FRET / MOA assay, NRAS WT
Assay type: biochemical
condition_description: read-out: IC50* NRAS WT FRET data
pIC50: −log10 of the molar value.
readout_kind: pIC50

{"columns": ["compound", "result"],
 "data": [
  ["C=CC(=O)N1CC[C@H](C(=O)N(C)[C@H](C(=O)N[C@H]2CC3=NC=C(O3)c3ccc4c(c3)c(c(-c3cccnc3[C@H](C)OC)n4CC)CC(C)(C)COC(=O)[C@@H]3CCCN(N3)C2=O)C(C)C)C1 (atropisomer, axis not shown) [Example A278]", "5.00 to 6.00"],
  ["C=CC(=O)N(C)C1CN(C(=O)N(C)[C@H](C(=O)N[C@H]2Cc3nc(cs3)-c3ccc4c(c3)c(c(-c3cccnc3[C@H](C)OC)n4CC)CC(C)(C)COC(=O)[C@@H]3CCCN(N3)C2=O)C(C)C)C1 (atropisomer, axis not shown) [Example A463]", "6.00 to 7.00"],
  ["C=CC(=O)N1CCOC2(CCN(C(=O)N(C)[C@H](C(=O)N[C@H]3Cc4nsc(n4)-c4ccc5c(c4)c(c(-c4cccnc4[C@H](C)OC)n5CC)CC(C)(C)COC(=O)[C@@H]4CCCN(N4)C3=O)C(C)C)CC2)C1 (atropisomer, axis not shown) [Example A545]", "6.00 to 7.00"],
  ["CCn1c(-c2cccnc2[C@H](C)OC)c2c3cc(ccc31)-c1csc(n1)C[C@H](NC(=O)[C@H](C(C)C)N(C)C(=O)N1CCN(C(=O)/C=C/CN3CCOCC3)C3(CC3)C1)C(=O)N1CCC[C@H](N1)C(=O)OCC(C)(C)C2 (atropisomer, axis not shown) [Example A665]", "7.00 to 8.00"]
]}

---

measured_target: NRAS WT (Homo sapiens (Human), UniProt P01111+P62937)
protocol_description: Ras-Raf (BRAF RBD) disruption / FRET / MOA assay, NRAS WT
Assay type: biochemical
condition_description: read-out: IC50* NRAS WT FRET data
Experimental: The purpose of this biochemical assay is to measure the ability of test compounds to facilitate ternary complex formation between a nucleotide-loaded Ras isoform and cyclophilin A; the resulting ternary complex disrupts binding to a BRAF^RBD construct, inhibiting Ras signaling through a RAF effector. […]. Compound is present in plate wells as a 10-point 3-fold dilution series starting at a final concentration of 30 μM. […]
Recorded measurements of IC50, one per entry

{"columns": ["molecule", "IC50"],
 "data": [
  ["C=CC(=O)N1CC(N(C)C(=O)N(C)[C@H](C(=O)N[C@H]2Cc3nc(cs3)-c3ccc4c(c3)c(c(-c3cccnc3[C@H](C)OC)n4CC(F)(F)F)CC(C)(C)COC(=O)[C@@H]3CCCN(N3)C2=O)C(C)C)C1 (atropisomer, axis not shown) [Example A711]", "10 to 100 nM"],
  ["C=CC(=O)N1CCC2(C1)CN(C(=O)N(C)[C@H](C(=O)N[C@H]1Cc3nc(cs3)-c3ccc4c(c3)c(c(-c3cccnc3[C@H](C)OC)n4CC(F)(F)F)CC(C)(C)COC(=O)[C@@H]3CCCN(N3)C1=O)C(C)C)C2 [Example A603]", "10 to 100 nM"],
  ["C=CC(=O)N1CC[C@H](C(=O)N(C)[C@H](C(=O)N[C@H]2CN3CCC=C(C3)c3ccc4c(c3)c(c(-c3cccnc3[C@H](C)OC)n4CC)CC(C)(C)COC(=O)[C@@H]3CCCN(N3)C2=O)C(C)C)C1 (atropisomer, axis not shown) [Example A716]", "1000 to 10000 nM"],
  ["C=CC(=O)N1CCC[C@@H]2CN(C(=O)N(C)[C@H](C(=O)N[C@H]3Cc4nc(cs4)-c4ccc5c(c4)c(c(-c4cccnc4[C@H](C)OC)n5CC)CC(C)(C)COC(=O)[C@@H]4CCCN(N4)C3=O)C(C)C)C[C@@H]21 (atropisomer, axis not shown) [Example A619]", "1000 to 10000 nM"],
  ["C=CC(=O)N1CC[C@H](C(=O)N(C)[C@H](C(=O)N[C@H]2Cc3cc(cc(C(F)F)c3)-c3ccc4c(c3)c(c(-c3cc(N5CCN(C)CC5)cnc3[C@H](C)OC)n4CC(F)(F)F)CC(C)(C)COC(=O)[C@@H]3CCCN(N3)C2=O)C(C)C)C1 (atropisomer, axis not shown) [Example A357]", "100 to 1000 nM"],
  ["CCn1c(-c2cccnc2[C@H](C)OC)c2c3cc(ccc31)-c1csc(n1)C[C@H](NC(=O)[C@H](C(C)C)N(C)C(=O)N1CCC13CN(C(=O)/C=C/CN1CCOCC1)C3)C(=O)N1CCC[C@H](N1)C(=O)OCC(C)(C)C2 (atropisomer, axis not shown) [Example A611]", "100 to 1000 nM"],
  ["C=CC(=O)N1CC[C@H](C(=O)N(C)[C@H](C(=O)N[C@H]2Cc3cccc(c3)-c3ccc4c(c3)c(c(-c3cnccc3[C@H](C)OC)n4CC)CC(C)(C)COC(=O)[C@@H]3CCCN(N3)C2=O)C(C)C)C1 (single isomer, unassigned) [Example A115]", "1000 to 10000 nM"],
  ["CCn1c(-c2cccnc2[C@H](C)OC)c2c3cc(ccc31)-c1csc(n1)C[C@H](NC(=O)[C@H](F)COC1CN(C(=O)C#CC(C)(C)N(C)C)C1)C(=O)N1CCC[C@H](N1)C(=O)OCC(C)(C)C2 (atropisomer, axis not shown) [Example A627]", "> 10000 nM"]
]}

---

measured_target: K-Ras G13C (Homo sapiens (Human), UniProt P01116+P62937, G13C)
Sequence (P01116-2 other isoform, or with tags, fused parts or gaps G13C, one chain of several): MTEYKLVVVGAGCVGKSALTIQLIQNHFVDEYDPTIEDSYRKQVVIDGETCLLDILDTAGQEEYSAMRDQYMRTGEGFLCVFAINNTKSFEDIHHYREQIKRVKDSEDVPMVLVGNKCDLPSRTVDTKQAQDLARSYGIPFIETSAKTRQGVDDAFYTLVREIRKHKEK
protocol_description: Ras-Raf (BRAF RBD) disruption / FRET / MOA assay, KRAS G13C
Format: biochemical
condition_description: KRAS G13C; Ras-Raf disruption/FRET/MOA assay; read-out: IC50* KRAS G13C FRET data
readout_kind: IC50

{"columns": ["compound", "measured_target", "result"],
 "data": [
  ["CCn1c(-c2cccnc2[C@H](C)OC)c2c3cc(ccc31)-c1cccc(c1)C[C@H](NC(=O)[C@@H](CO[C@@H]1CCN(C(=O)C#CC(C)(C)N(C)C)C1)C(C)C)C(=O)N1CCC[C@H](N1)C(=O)OCC(C)(C)C2 (atropisomer, axis not shown) [Example A584]", "K-Ras G13C (Homo sapiens (Human), UniProt P01116+P62937, G13C)", "1000 to 10000 nM"],
  ["C=C(OC)C(=O)N1CC2(CCN(C(=O)N(C)[C@H](C(=O)N[C@H]3Cc4nc(cs4)-c4ccc5c(c4)c(c(-c4cccnc4[C@H](C)OC)n5CC)CC(C)(C)COC(=O)[C@@H]4CCCN(N4)C3=O)C(C)C)CC2)C1 (atropisomer, axis not shown) [Example A681]", "K-Ras G13C (Homo sapiens (Human), UniProt P01116+P62937, G13C)", "100 to 1000 nM"],
  ["C=CC(=O)N1CCCC2(CCN(C(=O)N(C)[C@H](C(=O)N[C@H]3Cc4nc(cs4)-c4ccc5c(c4)c(c(-c4cccnc4[C@H](C)OC)n5CC)CC(C)(C)COC(=O)[C@@H]4CCCN(N4)C3=O)C(C)C)CC2)C1 (atropisomer, axis not shown) [Example A635]", "K-Ras G13C (Homo sapiens (Human), UniProt P01116+P62937, G13C)", "100 to 1000 nM"],
  ["C=CC(=O)N1CCO[C@H]2CN(C(=O)N(C)[C@H](C(=O)N[C@H]3Cc4cccc(n4)-c4ccc5c(c4)c(c(-c4cccnc4[C@H](C)OC)n5CC(F)(F)F)CC(C)(C)COC(=O)[C@@H]4CCCN(N4)C3=O)C(C)C)C[C@H]21 (atropisomer, axis not shown) [Example A595]", "K-Ras G13C (Homo sapiens (Human), UniProt P01116+P62937, G13C)", "10 to 100 nM"],
  ["C=CC(=O)N1CCC2(CCCN(C(=O)N(C)[C@H](C(=O)N[C@H]3Cc4nc(cs4)-c4ccc5c(c4)c(c(-c4cccnc4[C@H](C)OC)n5CC)CC(C)(C)COC(=O)[C@@H]4CCCN(N4)C3=O)C(C)C)C2)CC1 (atropisomer, axis not shown) [Example A696]", "K-Ras G13C (Homo sapiens (Human), UniProt P01116+P62937, G13C)", "100 to 1000 nM"],
  ["CCn1c(-c2cccnc2[C@H](C)OC)c2c3cc(ccc31)-c1csc(n1)C[C@H](NC(=O)[C@H](C)N(C)C(=O)[C@H]1CCN(C(=O)C#CC(C)(C)N3CCC3)C1)C(=O)N1CCC[C@H](N1)C(=O)OCC(C)(C)C2 (atropisomer, axis not shown) [Example A489]", "K-Ras G13C (Homo sapiens (Human), UniProt P01116+P62937, G13C)", "1000 to 10000 nM"],
  ["C=CC(=O)N1C[C@@H](N(C)C(=O)N(C)[C@H](C(=O)N[C@H]2Cc3nc(cs3)-c3ccc4c(c3)c(c(-c3cccnc3[C@H](C)OC)n4CC)CC(C)(C)COC(=O)[C@@H]3CCCN(N3)C2=O)C(C)C)[C@@H](C)C1 (atropisomer, axis not shown) [Example A583]", "K-Ras G13C (Homo sapiens (Human), UniProt P01116+P62937, G13C)", "100 to 1000 nM"],
  ["C=CC(=O)Nc1cnc(C(=O)N(C)[C@H](C(=O)N[C@H]2Cc3cccc(c3)-c3ccc4c(c3)c(c(-c3cccnc3[C@H](C)OC)n4CC)CC(C)(C)COC(=O)[C@@H]3CCCN(N3)C2=O)C(C)C)n1C (atropisomer, axis not shown) [Example A524]", "K-Ras G13C (Homo sapiens (Human), UniProt P01116+P62937, G13C)", "100 to 1000 nM"],
  ["C=CC(=O)N1CCN(C(=O)N(C)[C@H](C(=O)N[C@H]2Cc3nc(cs3)-c3ccc4c(c3)c(c(-c3cccnc3[C@H](C)OC)n4CC)CC(C)(C)COC(=O)[C@@H]3CCCN(N3)C2=O)C(C)C)[C@H]2CC[C@H]21 (atropisomer, axis not shown) [Example A734]", "K-Ras G13C (Homo sapiens (Human), UniProt P01116+P62937, G13C)", "10 to 100 nM"],
  ["C=CC(=O)N1CC[C@H](C(=O)N(C)[C@H](C(=O)N[C@H]2Cc3cccc(c3)-c3ccc4c(c3)c(c(-c3cc5c(nc3[C@H](C)OC)CCN(C)C5)n4CC)CC(C)(C)COC(=O)[C@@H]3CCCN(N3)C2=O)C(C)C)C1 (atropisomer, axis not shown) [Example A461]", "K-Ras G13C (Homo sapiens (Human), UniProt P01116+P62937, G13C)", "1000 to 10000 nM"],
  ["CO[C@@H](C)c1ncccc1-c1c2c3cc(ccc3n1CC(F)(F)F)N1CCO[C@@H](C[C@H](NC(=O)[C@H](C(C)C)N3CC[C@@]4(CCN(C(=O)C#CC(C)(C)N(C)C)C4)C3=O)C(=O)N3CCC[C@H](N3)C(=O)OCC(C)(C)C2)C1 (atropisomer, axis not shown) [Example A628]", "K-Ras G13C (Homo sapiens (Human), UniProt P01116+P62937, G13C)", "1000 to 10000 nM"],
  ["CCn1c(-c2cccnc2[C@H](C)OC)c2c3cc(ccc31)-c1csc(n1)C[C@H](NC(=O)[C@H](C(C)C)N(C)C(=O)N1CCC3(CC1)CN(C(=O)/C=C/C(F)F)C3)C(=O)N1CCC[C@H](N1)C(=O)OCC(C)(C)C2 (atropisomer, axis not shown) [Example A683]", "K-Ras G13C (Homo sapiens (Human), UniProt P01116+P62937, G13C)", "< 10 nM"],
  ["CCn1c(-c2cccnc2[C@H](C)OC)c2c3cc(ccc31)-c1nc(co1)C[C@H](NC(=O)[C@@H](COC1CN(C(=O)C#CC(C)(C)N(C)C)C1)C(C)C)C(=O)N1CCC[C@H](N1)C(=O)OCC(C)(C)C2 (atropisomer, axis not shown) [Example A675]", "K-Ras G13C (Homo sapiens (Human), UniProt P01116+P62937, G13C)", "> 10000 nM"],
  ["C=CC(=O)N1CC[C@H](C(=O)N(C)[C@H](C(=O)N[C@H]2Cc3cc(C)cc(c3)-c3ccc4c(c3)c(c(-c3cccnc3[C@H](C)OC)n4CC)CC(C)(C)COC(=O)[C@@H]3CCCN(N3)C2=O)C(C)C)C1 (atropisomer, axis not shown) [Example A498]", "K-Ras G13C (Homo sapiens (Human), UniProt P01116+P62937, G13C)", "1000 to 10000 nM"]
]}
